target: Bone morphogenetic protein receptor type-2 (Homo sapiens); also: in the data inactive means no Kd found up to 30 µM
Sequence (Q13873 whole entry): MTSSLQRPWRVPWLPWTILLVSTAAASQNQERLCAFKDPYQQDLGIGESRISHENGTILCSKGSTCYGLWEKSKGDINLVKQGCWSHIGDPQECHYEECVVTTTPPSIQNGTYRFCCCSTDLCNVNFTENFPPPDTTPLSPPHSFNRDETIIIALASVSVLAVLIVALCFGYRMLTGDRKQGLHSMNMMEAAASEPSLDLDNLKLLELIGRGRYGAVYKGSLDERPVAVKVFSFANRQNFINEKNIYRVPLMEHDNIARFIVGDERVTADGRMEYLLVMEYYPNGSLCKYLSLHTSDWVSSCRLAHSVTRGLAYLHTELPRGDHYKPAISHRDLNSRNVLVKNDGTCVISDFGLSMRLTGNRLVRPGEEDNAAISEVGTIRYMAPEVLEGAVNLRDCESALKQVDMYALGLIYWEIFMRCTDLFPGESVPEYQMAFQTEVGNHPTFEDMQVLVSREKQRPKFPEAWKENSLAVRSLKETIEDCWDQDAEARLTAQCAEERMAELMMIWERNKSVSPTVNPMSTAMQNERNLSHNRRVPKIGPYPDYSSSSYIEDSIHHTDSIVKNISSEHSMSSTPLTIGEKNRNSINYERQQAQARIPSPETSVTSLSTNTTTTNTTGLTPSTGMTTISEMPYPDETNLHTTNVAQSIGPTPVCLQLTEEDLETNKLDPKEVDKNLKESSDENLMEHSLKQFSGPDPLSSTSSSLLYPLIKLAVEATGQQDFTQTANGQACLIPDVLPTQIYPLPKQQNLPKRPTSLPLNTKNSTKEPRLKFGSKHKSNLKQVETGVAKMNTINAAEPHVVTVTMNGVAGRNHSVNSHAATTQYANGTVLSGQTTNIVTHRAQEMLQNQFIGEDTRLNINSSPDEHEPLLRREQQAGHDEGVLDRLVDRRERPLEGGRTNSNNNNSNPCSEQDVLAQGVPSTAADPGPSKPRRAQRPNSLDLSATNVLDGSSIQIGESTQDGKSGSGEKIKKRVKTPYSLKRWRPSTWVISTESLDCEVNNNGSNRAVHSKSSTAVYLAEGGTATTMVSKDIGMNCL
Activity calls are given as the source filed them.
Choose one outcome from this list and give only that: TRUE (active), FALSE (inactive)

Each molecule tested received a call. Report the one for O=C(O)c1ccc2c(c1)nc(Nc1cccc(Cl)c1)c1ccncc12 [SILMITASERTIB] .
TRUE

Each molecule tested received a call. Report the one for FC(F)(F)c1ccc(CNc2ccc(Cc3c[nH]c4ncc(Cl)cc34)cn2)cn1 [PEXIDARTINIB] .
FALSE

Each molecule tested received a call. Report the one for COc1ccc(-c2ccc3ncc4c(c3c2)n(-c2ccc(N3CCNCC3)c(C(F)(F)F)c2)c(=O)n4C)cn1 [BGT-226 FREE BASE] .
FALSE

Each molecule tested received a call. Report the one for C=CCN(/C=C1/C(=O)O[C@H](COC)[C@@]2(C)C1=C(O)C(=O)C1=C2[C@H](OC(C)=O)C[C@]2(C)C(=O)CC[C@@H]12)CC=C [SONOLISIB] .
FALSE
